Entry source: the supplement of paper PMC6522484

- System: SW480
- Method Description: cell viability (CellTiter-Glo) relative to plate median (fraction of plate median); higher = more viable cells
- Particulars: 5 µM; treatment time 24 h; reporter: 7TFP
We label by threshold. Values of cell viability strictly beneath 1 are criterion met. Values of 1 and up are criterion not met.

Look over these answered cases.
Molecule	System Tested	Class Name
CCOC(=O)N1CCC(=C2c3ccc(Cl)cc3CCc3cccnc32)CC1	SW480	criterion met
COc1ccc(C(C)=O)c(O)c1	SW480	criterion not met

query: # TODO verify cell viability < 1 strictly for this molecule: N[C@@H](Cc1cc(I)c(Oc2ccc(O)c(I)c2)c(I)c1)C(=O)O [LIOTHYRONINE (L- isomer) SODIUM]
result: criterion not met

query: Item CC(C[N+](C)(C)C)OC(N)=O (stereo unspecified) : cell viability beneath 1, strictly?
result: criterion not met

query: I'd appreciate it if you could check whether COc1c2c(c(O)c3c4c(c(C)cc13)[C@@H]1O[C@@]3(C(OC)OC)O[C@@H]1[C@@](O[C@H]1CC(O)[C@@](O)(C(C)=O)C(C)O1)(O4)[C@@]3(O)Cn1cnc3nc(N)[nH]c(=O)c31)C(=O)C(O)CC2O[C@H]1CC(C)(O)[C@H](OC(C)=O)C(C)O1 (stereo partly specified) has cell viability smaller than 1.
result: criterion met

query: Is 1 strictly greater than the molecule's reported cell viability? molecule: `CC(C)CCC[C@@H](C)[C@H]1CC[C@H]2[C@@H]3C[C@@H](O)[C@@]4(O)C[C@@H](O)CC[C@]4(C)[C@H]3CC[C@]12C`
result: criterion met

query: Input `CC(=O)N[C@@H](CC(=O)N[C@@H](CCC(=O)O)C(=O)O)C(=O)O` ; condition: cell viability strictly below 1. Does it hold?
result: criterion met

query: Please let me know if `C=C[C@]1(C)C=C2C(=O)[C@@]3(O)OC(=O)[C@@]4(CCCC(C)(C)[C@H]34)[C@@]2(O)CC1` shows cell viability below 1.
result: criterion met

query: Consider the molecule C/C1=C\CCC(=O)C2CC(C)(C)C2CC1 (stereo unspecified) . Is its cell viability strictly less than 1?
result: criterion met

query: Confirm or reject: cell viability of `COc1cc(/C=C/C(=O)N2CCC=CC2=O)cc(OC)c1OC` lies strictly below 1
result: criterion not met
